Experiment: AUC (0 to t) in Sprague-Dawley rat at 10 mg/kg, po by LC-MS/MS analysis
Format: ADME, organism-based
Details: in vivo
assay_metric: AUC(0-t) (ng·h/mL)

1) Nc1cc(F)ccc1NC(=O)c1ccc(CNC(=O)/C=C2\NC(=O)c3ccccc32)cc1 | 1710

---

Below, each of the compounds is paired with its reported microsomal CLint at 1 µM value.
Assay: Metabolic stability in dog liver microsomes assessed as internal clearance at 1 uM preincubated for 10 mins followed by NADPH addition measured upto 60 mins by LC-MS/MS analysis
Type: ADME, Canis lupus familiaris, Microsome
Conditions: read-out: CLH
assay_metric: microsomal CLint at 1 µM

1. Nc1cc(F)ccc1NC(=O)c1ccc(CNC(=O)/C=C2\NC(=O)c3ccccc32)cc1 | 6.92 µL/min/mg
2. Nc1cc(F)ccc1NC(=O)c1ccc(CNC(=O)/C=C/c2cccnc2)cc1 [TUCIDINOSTAT] | 5.76 µL/min/mg

---

Below, each of the compounds is paired with its reported pIC50 value.
Tested on: K562
Test: Antiproliferative activity against human K562 assessed as reduction in cell viability measured after 72 hrs using alamar blue based fluorescence method
Assay type: functional
Conditions: K562, 72 h
pIC50: −log10 of the molar value.
assay_metric: pIC50

1. Nc1cc(F)ccc1NC(=O)c1ccc(CNC(=O)/C=C/c2cccnc2)cc1 | 6.13
2. Nc1cc(F)ccc1NC(=O)c1ccc(CNC(=O)/C=C2\NC(=O)c3ccccc32)cc1 | 6.71
3. Nc1ccccc1NC(=O)c1ccc(CNC(=O)/C=C2\NC(=O)c3ccccc32)cc1 | 6.54

---

Experiment: AUC (0 to infinity) in Sprague-Dawley rat at 10 mg/kg, po by LC-MS/MS analysis
Type: ADME, organism-based
Design: dose 10 mg/kg, time infinity, route oral
Settings: in vivo
assay_metric: AUC(0-inf) (ng·h/mL)

1. Nc1cc(F)ccc1NC(=O)c1ccc(CNC(=O)/C=C2\NC(=O)c3ccccc32)cc1 | 1740

---

Biological target: Histone deacetylase 8 (Homo sapiens, UniProt Q9BY41)
Sequence (Q9BY41 whole entry): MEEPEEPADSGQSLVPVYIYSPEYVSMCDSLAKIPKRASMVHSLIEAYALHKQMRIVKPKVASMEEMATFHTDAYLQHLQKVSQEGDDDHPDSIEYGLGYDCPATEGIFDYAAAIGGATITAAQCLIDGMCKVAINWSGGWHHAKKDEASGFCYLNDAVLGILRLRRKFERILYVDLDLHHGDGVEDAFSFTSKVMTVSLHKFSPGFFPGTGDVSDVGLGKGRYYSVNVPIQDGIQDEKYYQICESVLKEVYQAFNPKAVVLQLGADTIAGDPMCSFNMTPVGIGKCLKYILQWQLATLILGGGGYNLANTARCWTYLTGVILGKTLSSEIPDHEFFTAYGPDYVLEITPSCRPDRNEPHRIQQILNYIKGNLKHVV
pIC50: −log10 of the molar value.
assay_metric: pIC50

1) Nc1cc(F)ccc1NC(=O)c1ccc(CNC(=O)/C=C2\NC(=O)c3ccccc32)cc1 | 5.97

---

Molecular target: Histone deacetylase 2 (Homo sapiens, UniProt Q92769)
Sequence (Q92769 whole entry): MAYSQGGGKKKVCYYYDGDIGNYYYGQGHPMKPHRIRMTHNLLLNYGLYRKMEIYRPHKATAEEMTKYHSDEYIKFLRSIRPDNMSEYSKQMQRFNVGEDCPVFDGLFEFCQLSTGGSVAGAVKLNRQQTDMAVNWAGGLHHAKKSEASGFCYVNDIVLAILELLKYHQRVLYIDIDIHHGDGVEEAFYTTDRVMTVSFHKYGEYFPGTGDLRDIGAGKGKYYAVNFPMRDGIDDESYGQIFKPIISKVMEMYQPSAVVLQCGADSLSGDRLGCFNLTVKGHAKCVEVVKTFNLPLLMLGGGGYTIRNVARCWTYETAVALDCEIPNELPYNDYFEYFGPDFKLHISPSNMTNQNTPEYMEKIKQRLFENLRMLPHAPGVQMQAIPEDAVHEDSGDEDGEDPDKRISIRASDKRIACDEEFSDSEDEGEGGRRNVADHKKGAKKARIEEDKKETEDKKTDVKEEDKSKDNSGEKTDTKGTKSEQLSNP
pIC50: −log10 of the molar value.
assay_metric: pIC50

1) Nc1cc(F)ccc1NC(=O)c1ccc(CNC(=O)/C=C2\NC(=O)c3ccccc32)cc1 | 7.12

---

Target: Histone deacetylase 11 (Homo sapiens, UniProt Q96DB2)
Sequence (Q96DB2 whole entry): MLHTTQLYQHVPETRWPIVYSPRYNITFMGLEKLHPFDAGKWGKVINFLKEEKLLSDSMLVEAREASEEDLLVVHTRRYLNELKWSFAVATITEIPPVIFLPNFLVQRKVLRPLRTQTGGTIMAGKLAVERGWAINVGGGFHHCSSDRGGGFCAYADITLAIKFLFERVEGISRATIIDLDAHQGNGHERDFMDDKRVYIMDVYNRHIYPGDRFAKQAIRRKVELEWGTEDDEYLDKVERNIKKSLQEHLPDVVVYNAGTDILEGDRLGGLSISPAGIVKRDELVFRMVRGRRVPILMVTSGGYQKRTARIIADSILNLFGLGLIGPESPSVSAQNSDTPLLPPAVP
pIC50: −log10 of the molar value.
assay_metric: pIC50

1. Nc1cc(F)ccc1NC(=O)c1ccc(CNC(=O)/C=C2\NC(=O)c3ccccc32)cc1 | 6.20

---

Assay: AUC (0 to t) in Sprague-Dawley rat at 1 mg/kg, iv by LC-MS/MS analysis
Assay type: ADME, organism-based
Details: in vivo
assay_metric: AUC(0-t)

1) Nc1cc(F)ccc1NC(=O)c1ccc(CNC(=O)/C=C2\NC(=O)c3ccccc32)cc1 | 781 ng·h/mL

---

Test: Terminal half life in Sprague-Dawley rat at 10 mg/kg, po by LC-MS/MS analysis
Format: ADME, organism-based
Conditions: in vivo, read-out: beta t1/2 (converted)
assay_metric: half-life (h)

1. Nc1cc(F)ccc1NC(=O)c1ccc(CNC(=O)/C=C2\NC(=O)c3ccccc32)cc1 | 1.3

---

Experiment: Clearance in Sprague-Dawley rat at 1 mg/kg, iv by LC-MS/MS analysis
Assay type: ADME, organism-based
Details: in vivo
assay_metric: clearance

1. Nc1cc(F)ccc1NC(=O)c1ccc(CNC(=O)/C=C2\NC(=O)c3ccccc32)cc1 | 21.3 mL/min/kg

---

Experiment: AUC (0 to infinity) in Sprague-Dawley rat at 1 mg/kg, iv by LC-MS/MS analysis
Type: ADME, organism-based
Parameters: dose 1 mg/kg, route intravenous, time infinity
Conditions: in vivo
assay_metric: AUC(0-inf)

1) Nc1cc(F)ccc1NC(=O)c1ccc(CNC(=O)/C=C2\NC(=O)c3ccccc32)cc1 | 784 ng·h/mL

---

Here, each record is paired with measured half-life at 1 µM data.
Test: Metabolic stability in human liver microsomes assessed as half life at 1 uM preincubated for 10 mins followed by NADPH addition measured upto 60 mins by LC-MS/MS analysis
Type: ADME, Microsome
assay_metric: half-life at 1 µM

1) Nc1cc(F)ccc1NC(=O)c1ccc(CNC(=O)/C=C/c2cccnc2)cc1 | 4.6 h
2) Nc1cc(F)ccc1NC(=O)c1ccc(CNC(=O)/C=C2\NC(=O)c3ccccc32)cc1 | 4.87 h

---

Biological target: Histone deacetylase 1 (Homo sapiens, UniProt Q13547)
Sequence (Q13547 whole entry): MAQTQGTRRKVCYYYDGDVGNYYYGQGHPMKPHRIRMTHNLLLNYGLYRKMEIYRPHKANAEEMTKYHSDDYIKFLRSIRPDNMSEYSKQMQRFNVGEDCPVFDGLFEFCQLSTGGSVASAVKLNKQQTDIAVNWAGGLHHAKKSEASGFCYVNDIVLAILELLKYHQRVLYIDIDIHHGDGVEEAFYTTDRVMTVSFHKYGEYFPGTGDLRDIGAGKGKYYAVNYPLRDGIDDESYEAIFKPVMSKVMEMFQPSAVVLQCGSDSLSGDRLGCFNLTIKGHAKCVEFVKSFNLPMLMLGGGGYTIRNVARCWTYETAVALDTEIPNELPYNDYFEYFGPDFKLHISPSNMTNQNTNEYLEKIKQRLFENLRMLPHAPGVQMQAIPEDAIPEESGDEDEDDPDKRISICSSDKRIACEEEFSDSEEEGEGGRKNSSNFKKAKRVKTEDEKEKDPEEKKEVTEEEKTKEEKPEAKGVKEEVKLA
Experiment: Inhibition of HDAC1 (unknown origin) using Fluor de Lys substrate by fluorescence assay relative to control
Conditions: read-out: IC50
pIC50: −log10 of the molar value.
Entry class follows pIC50: range 1: < 6; range 2: ≥ 6 and < 7; range 3: ≥ 7

1) Nc1cc(F)ccc1NC(=O)c1ccc(CNC(=O)/C=C2\NC(=O)c3ncccc32)cc1 | range 1
2) Nc1cc(F)ccc1NC(=O)c1ccc(CNC(=O)/C=C2\NC(=O)c3cc(Cl)c(Cl)cc32)cc1 | range 2
3) Nc1cc(F)ccc1NC(=O)CCCCCNC(=O)/C=C1\NC(=O)c2ccccc21 | range 1
4) Nc1cc(Cl)ccc1NC(=O)c1ccc(CNC(=O)/C=C2\NC(=O)c3ccccc32)cc1 | range 2
5) O=C(/C=C1\NC(=O)c2ccccc21)NCCCCCC(=O)NO | range 3
6) Nc1ccccc1NC(=O)CCCCCCNC(=O)/C=C1\NC(=O)c2ccccc21 | range 2

---

Assay: Metabolic stability in rat liver microsomes assessed as internal clearance at 1 uM preincubated for 10 mins followed by NADPH addition measured upto 60 mins by LC-MS/MS analysis
Type: ADME, Microsome
Conditions: read-out: CLH
assay_metric: microsomal CLint at 1 µM (µL/min/mg)

1) Nc1cc(F)ccc1NC(=O)c1ccc(CNC(=O)/C=C2\NC(=O)c3ccccc32)cc1 | 11.7
2) Nc1cc(F)ccc1NC(=O)c1ccc(CNC(=O)/C=C/c2cccnc2)cc1 [TUCIDINOSTAT] | 10.3

---

Biological target: Histone deacetylase 3 (Homo sapiens)
Sequence (O15379 whole entry): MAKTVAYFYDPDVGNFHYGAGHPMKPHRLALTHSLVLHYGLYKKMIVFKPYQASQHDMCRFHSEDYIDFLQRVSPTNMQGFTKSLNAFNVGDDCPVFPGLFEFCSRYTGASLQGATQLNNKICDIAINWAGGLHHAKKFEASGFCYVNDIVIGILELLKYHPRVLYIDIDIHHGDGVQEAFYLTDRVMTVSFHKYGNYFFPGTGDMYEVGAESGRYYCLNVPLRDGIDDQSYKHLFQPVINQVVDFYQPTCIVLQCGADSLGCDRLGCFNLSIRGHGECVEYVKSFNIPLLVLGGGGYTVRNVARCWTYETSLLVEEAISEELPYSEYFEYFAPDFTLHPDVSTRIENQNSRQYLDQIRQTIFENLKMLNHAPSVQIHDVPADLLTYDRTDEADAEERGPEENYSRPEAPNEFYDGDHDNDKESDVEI
pIC50: −log10 of the molar value.
assay_metric: pIC50

1) Nc1cc(F)ccc1NC(=O)c1ccc(CNC(=O)/C=C2\NC(=O)c3ccccc32)cc1 | 6.95

---

Molecular target: Histone deacetylase 1 (Homo sapiens, UniProt Q13547)
Assay: Inhibition of HDAC1 (unknown origin) using Fluor de Lys substrate by fluorescence assay relative to control
Conditions: read-out: IC50
Entries and their measured IC50 follow.
assay_metric: IC50

1. COc1ccc2c(c1)/C(=C/C(=O)NCc1ccc(C(=O)Nc3ccc(F)cc3N)cc1)NC2=O | 96.8 nM
2. Nc1ccc(F)cc1NC(=O)c1ccc(CNC(=O)/C=C2\NC(=O)c3ccccc32)cc1 | 70.3 nM
3. Nc1ccccc1NC(=O)CCCCCNC(=O)/C=C1\NC(=O)c2ccccc21 | 872 nM
